The reported measurements were obtained from patent US20070065439A1.

pKd for assorted binders
# target of assay: Cynomolgus monkey IL-1β (cynomolgus monkey)
# Sequence (P48090 117-269 limits assumed): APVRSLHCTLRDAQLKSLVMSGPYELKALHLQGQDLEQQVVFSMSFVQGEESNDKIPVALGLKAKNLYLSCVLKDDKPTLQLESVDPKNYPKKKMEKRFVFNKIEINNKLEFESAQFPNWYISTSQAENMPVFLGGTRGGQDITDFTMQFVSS
# assay: Biacore low-res, mAb captured, cyno IL-1β 117 nM, 25C
pKd: −log10 of the molar value.
quantity kind: pKd

>>> data_value("9.26.1 (antibody, human IgG4, V domains shown) VH: QVQLVESGGGVVQPGRSLRLSCAASGFTFNNYGMHWVRQAPGKGLECVAVIWYDGGNKYYADSVKGRFAISRDNSKNTLYLQMNSLRAEDTAVYYCTAVTKLNYYYGMDVWGQGTTVTVS VL: QSALTQPASVSGSPGQSITISCTGTSSDVGGYNYVSWYQQHPGKAPKLMIYEVSNRPSGVSNRFSGSKSGNTASLTISGLQAEDEADYYCSSYTSSSILVFGGGTKLTVL")
8.89
>>> data_value("4.20.1 (antibody, human IgG4, V domains shown) VH: QVQLVESGGGVVQPGRSLRLSCAASGFTFSNYGMNWVRQAPGKGLEWVAVIWYDGNNKSEADSVKGRFTISRDNSKNTLYLQMNSLRAEDTAVYYCARDSRSGPFDYWGQGTLVTVSS VL: EIVLTQSPDFQSVTPKEKVTITCRASQSIGSSLHWYQQKPDQSPKLLIKFASQSFSGVPSRISGSGSGTDFTLTINSLEAEDAATYYCHQSSSLPFTFGPGTKVDIK")
8.20
>>> data_value("9.11.1 (antibody, human IgG4, V domains shown) VH: QVQLVESGGGVVQPGRSLRLSCAASGFTFSVYGMHWVRQAPGKGLEWVAVIWYDGNNKYYVDSVKGRFTISRDNSKNTLYLQLNSLRAEDTAVYYCARERSSSWYFDYWGQGTLVTVSS VL: QSALTQPASVSGSSGQSITISCTGTSSDVGSYNLVSWYQQHPGKAPKLMIYEVSKRPSGVSNRFSGSKSGNTASLTISGLQAEDEADYYCCSYAGNSNWVFGGGTKLTVL")
9.10
>>> data_value("5.5.1 (antibody, IgG4, V domains shown) VH: QVQLVESGGGVVQPGRSLRLSCAASGFTFSSYGMHWVRQAPGKGLEWVAVIWYDGDNKYYADSVQGRFTISRDNSKNTLYLQMNSLRPEDTAVYYCARERSSSWYFDYWGQGTLVTVSS VL: QSALTQPASVSGSPGQSITISCTGTSSDVGSYNLVSWYQQHPGKAPKLMIYEVSKRPSGISNRFSGSKSGNTASLTISGLQAEDEADYYCCSYAGSSTWVFGGGTKLTVL")
8.34
>>> data_value("8.18.1 (antibody, human IgG4, V domains shown) VH: QVQLQESGPGLVKPSETLSLTCTVSGGSVSSGGYYWSWIRQPPGKGLEWIGYFYYSGSPNYNPSLKRRIAISVDTSKNQFSLRLSSVTAADTAVYYCARDPMHYYGMDVWGQGTTVTVSS VL: SSELTQPPSVSVFPGQTANITCSGDKLGDKFACWYQQKPGQSPVLVIYRDNKRPSGIPERFSGSNSGNTATLTISGTQAMDEADYYCQAWDSSTYVVFGGGTKLTVL")
9.10
>>> data_value("5.36.1 (antibody, human IgG4, V domains shown) VH: QVQLQQSGPGLVKPSQTLSLTCAISGDSVSSNSAAWNWIRQSPSRGLEWLGRTYYRSKWYNDYAVSVKSRITINPDTSKNQFSLQLNSVTPEDTAVYYCAREEQQLVRYYYYYGMDVWGQGTTVTVS VL: DIVMTQTPLSLSVTPGQPASISCKSSQSLLHSDGRTYLYWYLQRPGQPPQLLIYEASYRFSGVPDRFSGSGSGTDFTLKISRVEAEDVGIYYCMQSIQLPRTFGQGTRLEIK")
8.47
>>> data_value("9.31.1 (antibody, human IgG4, V domains shown) VH: QVQLVESGGGLVKPGGSLRLSCAASGFTFSDYYMSWIRQAPGKGLEWVSYIRSSGSTIYYADSVKGRFTISRDNAKNSLYLQMNSLRAEDTAVYYCARTPYSGRYHWYFDLWGRGTLVTVS VL: SYELTQPPSVSVSPGQTARITCSGDALPIKYAYWYQHKSGQAPVLVIYEDSKRPSGIPERFSGSSSGTMATLTISGAQVEDEADYYCYSTDSSGNHRVFGGGTKLTVL")
8.30
>>> data_value("9.19.1 (antibody, human IgG4, V domains shown) VH: QVQLVESGGGVVQPGRSLRLSCAASGFTFNNYGMHWVRQAPGKGLECVAVIWYDGGNKYYADSVKGRFAISRDNSKNTLYLQMNSLRAEDTAVYYCTAVTKLNYYYGMDVWGQRTTVTVS VL: QSALTQPASVSGSPGQSITISCTGTSSDVGGYNYVSWYQQHPGKAPKFMIYEVSNRPSGVSNRFSGSKSGNTASLTISGLQAEDEADYYCSSYTSSSILVFGGGTKLTVL")
9.30
>>> data_value("6.26.1 (antibody, human IgG4, V domains shown) VH: QLQLQESGPGLVKPSETLSLTCTVSGGSISRSSYYWGWIRQPPGKGLEWMGNIYYSGSTHYNPSLKSRVTISVDTSKNQFSLKLSSVTAADTAVFYCAKGREYISSSGYGMDVWGQGTTVTVS VL: SYELTQPPSVSVSPGQTASITCSGDKLGNKYVCWYQQKPGQSPVLVIFQDSRRPSGIPERFSGSNSGNTATLTISGTQAMDEADYYCQAWDTSTVIFGGGTKLTVL")
8.96
>>> data_value("8.50.1 (antibody, human IgG4, V domains shown) VH: QVQLQESGPGLVKPSETLSLTCTVSGGSISSDYWSWIRQPAGKGLEWIGRFYNSGRTNYRPSLKSRITMSVDTSKNQFSLKLSSVTAADTAVYYCARDMYSGRGNWYFDLWGRGTLVTVS VL: SYELTQPPSVSVSPGQTARITCSGDALPKKYAYWYQQKSGQAPVLVIYEDSKRPSGIPERFSGSSSGTMATLTISGAQVEDEADYYCYSTDSSDNHRVFGGGTKLTVL")
8.60
>>> data_value("9.2.1 (antibody, human IgG4, V domains shown) VH: QVQLVESGGGVVQPGRSLRLSCAASGFTFNNYGMHWVRQAPGKGLECVAVIWYDGGNKYYADSVKGRFAISRDNSKNTLYLQMNSLRAEDTAVYYCTAVTTLYYYYGMDVWGQGTTVTVS VL: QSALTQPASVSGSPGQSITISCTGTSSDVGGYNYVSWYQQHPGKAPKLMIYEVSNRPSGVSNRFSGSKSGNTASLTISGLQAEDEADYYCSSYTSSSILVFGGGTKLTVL")
8.35
